Provenance of the data: ChEMBL document CHEMBL4270566

System: Leishmania major
MEASUREMENT DESCRIPTION: Antileishmanial activity against Leishmania major promastigotes
Assay type: functional, organism-based
Overview of recorded EC50 for various compounds

SAMPLE SMILES | DISPLAY UNIT | EC50
CC(C)C[C@H](NC(=O)OC(C)(C)C)C(=O)N1CCC[C@@H]1C(=O)N1[C@H](C(=O)OCc2ccccc2)[C@H]1C(=O)OCc1ccccc1 | µM | 39.6
CC(C)C[C@H](NC(=O)OC(C)(C)C)C(=O)N1CCC[C@@H]1C(=O)N1[C@@H](C(=O)OCc2ccccc2)[C@@H]1C(=O)OCc1ccccc1 | µM | 37.4
CC(C)C[C@@H](NC(=O)OC(C)(C)C)C(=O)N1CCC[C@H]1C(=O)N1[C@H](C(=O)OCc2ccccc2)[C@H]1C(=O)OCc1ccccc1 | µM | 35.4
CC[C@H](C)[C@H](NC(=O)OC(C)(C)C)C(=O)N1CCC[C@@H]1C(=O)N1[C@@H](C(=O)OCc2ccccc2)[C@@H]1C(=O)OCc1ccccc1 | µM | 9.8
CC(C)[C@H](NC(=O)OC(C)(C)C)C(=O)N1CCC[C@@H]1C(=O)N1[C@@H](C(=O)OCc2ccccc2)[C@@H]1C(=O)OCc1ccccc1 | µM | 34.8
CC(C)C[C@@H](NC(=O)OC(C)(C)C)C(=O)N1CCC[C@H]1C(=O)N1[C@@H](C(=O)OCc2ccccc2)[C@@H]1C(=O)OCc1ccccc1 | µM | 95

====

ASSAYED SYSTEM: Cathepsin B (Homo sapiens)
MEASUREMENT DESCRIPTION: Inhibition of human cathepsin-B at 20 uM using Z-Phe-Arg-AMC as substrate by fluorometric assay relative to control
Calls of active or inactive are those of the source. No cut-off for these calls is given here.

COMPOUND | inhibition
CC(C)C[C@H](NC(=O)OC(C)(C)C)C(=O)N1CCC[C@@H]1C(=O)N1C(C(=O)O)C1C(=O)OC(C)(C)C (mixture of isomers) | inactive
CC(C)C[C@H](NC(=O)OC(C)(C)C)C(=O)N1CCC[C@@H]1C(=O)N1C(C(=O)OCCCc2ccccc2)C1C(=O)OCc1ccccc1 (mixture of isomers) | inactive
CC(C)C[C@H](NC(=O)OC(C)(C)C)C(=O)N1CCC[C@@H]1C(=O)N1[C@@H](C(=O)OCc2ccccc2)[C@@H]1C(=O)OCc1ccccc1 | inactive
CCOC(=O)C1C(C(=O)O)N1C(=O)[C@H]1CCCN1C(=O)[C@H](CC(C)C)NC(=O)OC(C)(C)C (mixture of isomers) | inactive
CC(C)C[C@H](NC(=O)OC(C)(C)C)C(=O)N1CCC[C@@H]1C(=O)N1C(C(=O)OCc2ccccc2)C1C(=O)OCC1CCCCC1 (mixture of isomers) | inactive
CC(C)C[C@@H](NC(=O)OC(C)(C)C)C(=O)N1CCC[C@H]1C(=O)N1[C@H](C(=O)OCc2ccccc2)[C@H]1C(=O)OCc1ccccc1 | inactive

====

ASSAYED SYSTEM: UniProtKB P07711
MEASUREMENT DESCRIPTION: Inhibition of human cathepsin-L at 20 uM using Z-Phe-Arg-AMC as substrate by fluorometric assay relative to control
Sequence (P07711 114-333 limits assumed): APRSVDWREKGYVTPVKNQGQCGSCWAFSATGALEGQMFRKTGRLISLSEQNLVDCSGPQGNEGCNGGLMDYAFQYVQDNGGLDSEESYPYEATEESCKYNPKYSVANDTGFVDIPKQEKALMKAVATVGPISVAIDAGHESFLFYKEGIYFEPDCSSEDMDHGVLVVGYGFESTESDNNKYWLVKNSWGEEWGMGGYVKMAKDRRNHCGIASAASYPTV
The source made the active and inactive calls. No cut-off for these calls is given here.

COMPOUND | inhibition
CC(C)C[C@H](NC(=O)OC(C)(C)C)C(=O)N1CCC[C@@H]1C(=O)N1C(C(=O)O)C1C(=O)OCCCc1ccccc1 (mixture of isomers) | < 50%
CC(C)C[C@H](NC(=O)OC(C)(C)C)C(=O)N1CCC[C@@H]1C(=O)N1C(C(=O)OCCCc2ccccc2)C1C(=O)OCc1ccccc1 (mixture of isomers) | < 50%
CCOC(=O)C1C(C(=O)O)N1C(=O)[C@H]1CCCN1C(=O)[C@H](CC(C)C)NC(=O)OC(C)(C)C (mixture of isomers) | < 50%
CC(C)C[C@H](NC(=O)OC(C)(C)C)C(=O)N1CCC[C@@H]1C(=O)N1[C@@H](C(=O)OCc2ccccc2)[C@@H]1C(=O)OCc1ccccc1 | inactive
CC(C)C[C@H](NC(=O)OC(C)(C)C)C(=O)N1CCC[C@@H]1C(=O)N1C(C(=O)OCCCc2ccccc2)C1C(=O)OCCCc1ccccc1 (mixture of isomers) | < 50%
CC(C)C[C@H](NC(=O)OC(C)(C)C)C(=O)N1CCC[C@@H]1C(=O)N1C(C(=O)OCCc2ccccc2)C1C(=O)OCCc1ccccc1 (mixture of isomers) | < 50%
CC(C)C[C@H](NC(=O)OC(C)(C)C)C(=O)N1CCC[C@H]1C(=O)N1[C@H](C(=O)OCc2ccccc2)[C@H]1C(=O)OCc1ccccc1 | inactive

====

pKi: −log10 of the molar value.
This section lists pKi readings for UniProt:P07711.
QUANTITY KIND: pKi

MOLECULE | ASSAYED SYSTEM | QUANTITY KIND | VAL
CC(C)C[C@H](NC(=O)OC(C)(C)C)C(=O)N1CCC[C@@H]1C(=O)N1C(C(=O)OCc2ccccc2)C1C(=O)OCc1ccccc1 (mixture of isomers) | UniProt:P07711 | pKi | 4.92
CC(C)C[C@H](NC(=O)OC(C)(C)C)C(=O)N1CCC[C@@H]1C(=O)N1C(C(=O)O)C1C(=O)OCC1CCCCC1 (mixture of isomers) | UniProt:P07711 | pKi | 5.14

====

Overview of recorded inhibition for various compounds
ASSAYED SYSTEM: Cruzipain (Trypanosoma cruzi) (UniProt P25779)
Sequence (P25779 123-467 limits assumed): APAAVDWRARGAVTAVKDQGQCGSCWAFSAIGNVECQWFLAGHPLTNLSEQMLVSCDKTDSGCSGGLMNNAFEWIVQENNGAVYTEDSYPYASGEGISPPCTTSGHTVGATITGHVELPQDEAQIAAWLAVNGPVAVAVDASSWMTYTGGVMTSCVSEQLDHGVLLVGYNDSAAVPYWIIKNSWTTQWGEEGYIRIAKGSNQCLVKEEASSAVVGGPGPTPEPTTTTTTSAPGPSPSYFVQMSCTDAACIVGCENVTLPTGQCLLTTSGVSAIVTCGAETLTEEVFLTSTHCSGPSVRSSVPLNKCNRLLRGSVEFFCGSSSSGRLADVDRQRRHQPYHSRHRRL
MEASUREMENT DESCRIPTION: Inhibition of Trypanosoma cruzi cruzain at 20 uM using Z-Phe-Arg-AMC as substrate by fluorometric assay relative to control

COMPOUND | ASSAYED SYSTEM | inhibition
CC(C)C[C@H](NC(=O)OC(C)(C)C)C(=O)N1CCC[C@@H]1C(=O)N1C(C(=O)O)C1C(=O)OCCc1ccccc1 (mixture of isomers) | Cruzipain (Trypanosoma cruzi) (UniProt P25779) | < 50%
CC(C)C[C@H](NC(=O)OC(C)(C)C)C(=O)N1CCC[C@@H]1C(=O)N1C(C(=O)OCCc2ccccc2)C1C(=O)OCCc1ccccc1 (mixture of isomers) | Cruzipain (Trypanosoma cruzi) (UniProt P25779) | > 50%
CC(C)C[C@H](NC(=O)OC(C)(C)C)C(=O)N1CCC[C@@H]1C(=O)N1C(C(=O)OCCCc2ccccc2)C1C(=O)OCc1ccccc1 (mixture of isomers) | Cruzipain (Trypanosoma cruzi) (UniProt P25779) | < 50%
CC(C)C[C@H](NC(=O)OC(C)(C)C)C(=O)N1CCC[C@@H]1C(=O)N1C(C(=O)OCc2ccccc2)C1C(=O)OCC1CCCCC1 (mixture of isomers) | Cruzipain (Trypanosoma cruzi) (UniProt P25779) | > 50%
CC(C)C[C@H](NC(=O)OC(C)(C)C)C(=O)N1CCC[C@@H]1C(=O)N1C(C(=O)O)C1C(=O)OCCCc1ccccc1 (mixture of isomers) | Cruzipain (Trypanosoma cruzi) (UniProt P25779) | < 50%
CCOC(=O)C1C(C(=O)OCc2ccccc2)N1C(=O)[C@H]1CCCN1C(=O)[C@H](CC(C)C)NC(=O)OC(C)(C)C (mixture of isomers) | Cruzipain (Trypanosoma cruzi) (UniProt P25779) | < 50%

====

ASSAYED SYSTEM: UniProt P07858
QUANTITY KIND: Ki (µM)

SAMPLE SMILES | VAL
CC(C)C[C@H](NC(=O)OC(C)(C)C)C(=O)N1CCC[C@H]1C(=O)N1[C@@H](C(=O)OCc2ccccc2)[C@@H]1C(=O)OCc1ccccc1 | 114

====

ASSAYED SYSTEM: UniProt:Q9N6S8
Sequence (whole entry): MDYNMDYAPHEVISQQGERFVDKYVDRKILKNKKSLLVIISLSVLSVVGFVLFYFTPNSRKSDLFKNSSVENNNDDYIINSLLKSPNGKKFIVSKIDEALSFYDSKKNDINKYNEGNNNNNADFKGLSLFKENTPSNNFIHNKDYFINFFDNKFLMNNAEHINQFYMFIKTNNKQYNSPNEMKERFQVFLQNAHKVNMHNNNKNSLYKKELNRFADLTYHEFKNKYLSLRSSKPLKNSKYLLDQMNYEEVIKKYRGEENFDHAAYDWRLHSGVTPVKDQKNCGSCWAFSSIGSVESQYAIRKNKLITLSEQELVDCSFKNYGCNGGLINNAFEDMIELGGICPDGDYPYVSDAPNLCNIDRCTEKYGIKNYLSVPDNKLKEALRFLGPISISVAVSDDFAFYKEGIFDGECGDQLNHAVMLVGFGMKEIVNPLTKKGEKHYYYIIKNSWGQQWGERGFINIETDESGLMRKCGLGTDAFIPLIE
MEASUREMENT DESCRIPTION: Inhibition of Plasmodium falciparum falcipain 2 at 20 uM using Z-Phe-Arg-AMC as substrate by fluorometric assay relative to control
Calls of active or inactive are those of the source. The calls are words filed in the database; no cut-off is given here.
QUANTITY KIND: inhibition

COMPOUND | VAL
CC(C)C[C@H](NC(=O)OC(C)(C)C)C(=O)N1CCC[C@@H]1C(=O)N1C(C(=O)OCC2CCCCC2)C1C(=O)OCC1CCCCC1 (mixture of isomers) | < 50%
CC(C)C[C@H](NC(=O)OC(C)(C)C)C(=O)N1CCC[C@@H]1C(=O)N1[C@@H](C(=O)OCc2ccccc2)[C@@H]1C(=O)OCc1ccccc1 | inactive
CC(C)C[C@H](NC(=O)OC(C)(C)C)C(=O)N1CCC[C@@H]1C(=O)N1C(C(=O)OCc2ccccc2)C1C(=O)OCc1ccccc1 (mixture of isomers) | > 50%
CC(C)C[C@H](NC(=O)OC(C)(C)C)C(=O)N1CCC[C@@H]1C(=O)N1C(C(=O)OCCc2ccccc2)C1C(=O)OCc1ccccc1 (mixture of isomers) | < 50%
CC(C)C[C@H](NC(=O)OC(C)(C)C)C(=O)N1CCC[C@@H]1C(=O)N1C(C(=O)O)C1C(=O)OCCc1ccccc1 (mixture of isomers) | > 50%
CC(C)C[C@H](NC(=O)OC(C)(C)C)C(=O)N1CCC[C@@H]1C(=O)N1C(C(=O)OCCCc2ccccc2)C1C(=O)OCc1ccccc1 (mixture of isomers) | < 50%
CC(C)C[C@H](NC(=O)OC(C)(C)C)C(=O)N1CCC[C@@H]1C(=O)N1C(C(=O)OCCCc2ccccc2)C1C(=O)OCCCc1ccccc1 (mixture of isomers) | < 50%
CC(C)C[C@H](NC(=O)OC(C)(C)C)C(=O)N1CCC[C@@H]1C(=O)N1C(C(=O)OCc2ccccc2)C1C(=O)OC(C)(C)C (mixture of isomers) | < 50%
CC(C)C[C@@H](NC(=O)OC(C)(C)C)C(=O)N1CCC[C@@H]1C(=O)N1[C@H](C(=O)OCc2ccccc2)[C@H]1C(=O)OCc1ccccc1 | inactive
CC(C)C[C@H](NC(=O)OC(C)(C)C)C(=O)N1CCC[C@@H]1C(=O)N1C(C(=O)OCCc2ccccc2)C1C(=O)OCCc1ccccc1 (mixture of isomers) | < 50%
CC(C)C[C@H](NC(=O)OC(C)(C)C)C(=O)N1CCC[C@@H]1C(=O)N1C(C(=O)OCc2ccccc2)C1C(=O)OCc1ccc2ccccc2c1 (mixture of isomers) | < 50%
CCOC(=O)C1C(C(=O)OCc2ccccc2)N1C(=O)[C@H]1CCCN1C(=O)[C@H](CC(C)C)NC(=O)OC(C)(C)C (mixture of isomers) | < 50%
CC(C)C[C@H](NC(=O)OC(C)(C)C)C(=O)N1CCC[C@@H]1C(=O)N1C(C(=O)O)C1C(=O)OC(C)(C)C (mixture of isomers) | < 50%
CC(C)C[C@H](NC(=O)OC(C)(C)C)C(=O)N1CCC[C@@H]1C(=O)N1C(C(=O)O)C1C(=O)OCCCc1ccccc1 (mixture of isomers) | > 50%
CCOC(=O)C1C(C(=O)O)N1C(=O)[C@H]1CCCN1C(=O)[C@H](CC(C)C)NC(=O)OC(C)(C)C (mixture of isomers) | < 50%
CC(C)C[C@H](NC(=O)OC(C)(C)C)C(=O)N1CCC[C@@H]1C(=O)N1C(C(=O)OCc2ccccc2)C1C(=O)OCC1CCCCC1 (mixture of isomers) | < 50%
CC(C)C[C@H](NC(=O)OC(C)(C)C)C(=O)N1CCC[C@H]1C(=O)N1[C@H](C(=O)OCc2ccccc2)[C@H]1C(=O)OCc1ccccc1 | inactive
CC(C)C[C@@H](NC(=O)OC(C)(C)C)C(=O)N1CCC[C@H]1C(=O)N1[C@@H](C(=O)OCc2ccccc2)[C@@H]1C(=O)OCc1ccccc1 | inactive
CC(C)C[C@H](NC(=O)OC(C)(C)C)C(=O)N1CCC[C@@H]1C(=O)N1C(C(=O)O)C1C(=O)OCC1CCCCC1 (mixture of isomers) | > 50%
